Attribution: patent US9341616B2

Biological target: h-mT1R2-481/T1R3mosaicC (UniProt Q8TE23+Q925D8, A537S/A558R/A564V/A568V/A570T/A588V/A645S/A649T/A658V/A698V/A702T/A782V/A793V/A807V/C582S/C678S/D172E/D176A/D217E/E221Q/E530V/E534N/E542M/E548N/E725V/F525Y/F541I/F612A/F622V/F665L/F695L/G696N/G701T/H484Y/H528R/H728R/I481V/I486P/I490V/I510L/I518V/I595M/I617V/I643V/I645L/I692L/I695G/I706V/I740A/I803L/K504M/K555R/K565R/K626T/K714N/K818R/K827G/L521P/L560F/L571I/L578I/L610P/L631F/L636F/L639V/L684P/L688V/L702I/L734M/L735F/L800F/L823M/L825Q/M492I/M616G/M644L/M682V/M690V/M744T/M748V/N203E/N231A/N540G/N541S/N547G/N675D/N721H/P545F/P561R/P564S/P638T/P824S/Q195T/Q536L/Q546K/Q550E/Q555R/Q611L/Q676H/Q757R/Q795R/Q831P/R173L/R498S/R632Q/R667S/S168G/S205G/S228A/S501P/S547N/S550A/S576L/S595F/S610P/S628F/S635P/S637R/S663R/S670G/S679G/S681F/S703N/S717H/S727G/S784D/S804G/T199E/T529S/T542A/T549I/T609V/T629S/T642S/T663I/T694M/T705I/T706G/T716I/T813A/V197A/V198A/V508I/V512P/V557A/V573A/V584A/V585L/V613L/V617M/V673M/V687A/V691A/V694A/V718L/V718M/V723A/V729T/V738A/V741L/V774I/V791M/V805L/V812A/V821L/W599R/W676R/W824R/Y533F/Y615F/Y671F/Y680C/Y769S/Y783H/Y794L)
Sequence (Q8TE23 with tags, fused parts or gaps with the stated changes limits assumed): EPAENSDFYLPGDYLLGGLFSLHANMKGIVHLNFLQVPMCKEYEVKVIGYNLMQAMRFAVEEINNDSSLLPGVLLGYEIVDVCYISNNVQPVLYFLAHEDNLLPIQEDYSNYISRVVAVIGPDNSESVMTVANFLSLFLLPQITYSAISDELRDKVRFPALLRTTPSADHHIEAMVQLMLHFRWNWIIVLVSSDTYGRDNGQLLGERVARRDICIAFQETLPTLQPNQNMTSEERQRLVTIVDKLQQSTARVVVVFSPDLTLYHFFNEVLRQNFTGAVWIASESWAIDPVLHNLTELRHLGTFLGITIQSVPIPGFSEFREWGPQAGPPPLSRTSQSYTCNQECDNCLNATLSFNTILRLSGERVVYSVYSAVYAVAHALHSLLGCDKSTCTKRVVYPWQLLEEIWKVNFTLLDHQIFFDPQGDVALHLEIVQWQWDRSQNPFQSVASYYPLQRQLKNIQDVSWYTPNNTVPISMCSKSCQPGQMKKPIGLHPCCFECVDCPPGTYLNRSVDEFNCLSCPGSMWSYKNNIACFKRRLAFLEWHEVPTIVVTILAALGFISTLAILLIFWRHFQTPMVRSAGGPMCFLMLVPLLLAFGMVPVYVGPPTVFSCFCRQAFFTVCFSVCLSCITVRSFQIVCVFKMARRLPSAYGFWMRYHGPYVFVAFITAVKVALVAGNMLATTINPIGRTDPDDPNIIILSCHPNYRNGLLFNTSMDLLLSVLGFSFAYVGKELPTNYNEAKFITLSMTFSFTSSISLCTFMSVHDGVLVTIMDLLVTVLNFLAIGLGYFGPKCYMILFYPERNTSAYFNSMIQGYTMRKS
Sequence (Q925D8 with tags, fused parts or gaps with the stated changes limits assumed): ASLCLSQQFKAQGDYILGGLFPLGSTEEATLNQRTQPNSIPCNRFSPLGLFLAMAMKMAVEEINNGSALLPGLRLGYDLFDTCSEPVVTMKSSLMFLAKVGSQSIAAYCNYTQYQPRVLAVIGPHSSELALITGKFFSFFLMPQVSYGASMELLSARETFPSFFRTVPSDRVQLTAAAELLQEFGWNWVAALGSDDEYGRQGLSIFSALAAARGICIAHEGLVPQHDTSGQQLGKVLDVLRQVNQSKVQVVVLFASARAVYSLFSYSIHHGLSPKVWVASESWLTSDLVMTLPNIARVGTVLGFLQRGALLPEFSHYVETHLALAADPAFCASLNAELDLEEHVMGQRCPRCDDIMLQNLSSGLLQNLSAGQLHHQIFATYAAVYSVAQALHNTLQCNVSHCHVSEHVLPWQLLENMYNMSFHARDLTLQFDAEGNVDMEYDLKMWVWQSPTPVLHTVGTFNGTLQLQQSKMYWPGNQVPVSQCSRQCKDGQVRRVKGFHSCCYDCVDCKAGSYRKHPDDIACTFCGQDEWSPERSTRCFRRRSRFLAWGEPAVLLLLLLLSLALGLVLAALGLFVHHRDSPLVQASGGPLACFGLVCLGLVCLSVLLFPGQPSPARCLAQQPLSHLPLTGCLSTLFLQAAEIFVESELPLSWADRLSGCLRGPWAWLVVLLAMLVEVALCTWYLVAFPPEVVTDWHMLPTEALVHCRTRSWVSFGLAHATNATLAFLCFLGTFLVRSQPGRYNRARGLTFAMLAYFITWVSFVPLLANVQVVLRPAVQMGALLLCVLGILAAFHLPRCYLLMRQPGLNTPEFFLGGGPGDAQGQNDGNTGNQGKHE
Conditions: Table 6; genes h-mT481/T1R3mC (h-mT1R2-481, T1R3mC); HEK293E cells
Residues, ends and D or L forms follow the SMILES beside them.
Entries and their measured S/N follow.
measured-property: S/N

{"molecule": "OC[C@H]1O[C@H](O[C@]2(CCl)O[C@H](CCl)[C@@H](O)[C@@H]2O)[C@H](O)[C@@H](O)[C@H]1Cl", "number": 4.8}
{"molecule": "COC(=O)[C@H](Cc1ccccc1)NC(=O)[C@H](CC(=O)O)NCCCc1ccc(OC)c(O)c1", "number": 9.9}
{"molecule": "CC1=CC(=O)NS(=O)(=O)O1", "number": 3.2}
{"molecule": "COC(=O)[C@H](Cc1ccccc1)NC(=O)[C@@H](N)CC(=O)O [Aspartame, aspartame] (HELM PEPTIDE1{D.F.[CO[*:1]]}$$$$V2.0)", "number": 6.3}
{"molecule": "OC[C@H]1O[C@@](CO)(O[C@H]2O[C@H](CO)[C@@H](O)[C@H](O)[C@H]2O)[C@@H](O)[C@@H]1O", "number": 3.4}
{"molecule": "COc1ccc(CCC(=O)c2c(O)cc(O[C@@H]3O[C@H](CO)[C@@H](O)[C@H](O)[C@H]3O[C@@H]3O[C@@H](C)[C@H](O)[C@@H](O)[C@H]3O)cc2O)cc1O [NHDC, neohesperidin dihydrochalcone]", "number": 3.9}
{"molecule": "C[C@H](NC(=Nc1ccc(C#N)cc1)NCC(=O)O)c1ccccc1", "number": 6.1}
{"molecule": "COC(=O)[C@H](Cc1ccccc1)NC(=O)[C@H](CC(=O)O)NCCC(C)(C)C", "number": 8.4}
{"molecule": "O=C1NS(=O)(=O)c2ccccc21.[Na] [Saccharin Na, sodium saccharin]", "number": 4.5}

---

Target: hT1R2/T1R3mosaicA (UniProt Q8TE23+Q925D8, A12W/A31M/A558R/A588V/A645S/A698V/A702T/A793V/A807V/C582S/C678S/E16H/E725V/F14L/F29L/F541I/F612A/F622V/F695L/H728R/I36V/I60P/I617V/I706V/I740A/I803L/K30R/K555R/K565R/K818R/K827G/L17P/L560F/L684P/L735F/L823M/L825Q/M19T/M644L/M744T/N52R/N547G/N58S/N63T/N675D/P545F/P561R/P564S/P61V/Q32K/Q53S/Q550E/Q56R/Q611L/Q757R/Q795R/Q831P/R632Q/S22P/S45E/S576L/S595F/S610P/S635P/S637R/S679G/S717H/T46A/T50G/T542A/T663I/T694M/T813A/V573A/V584A/V718M/V723A/V729T/V738A/V805L/V812A/V821L/W599R/W676R/W824R/Y680C/Y794L)
Sequence (Q8TE23 20-839, stated change not applied): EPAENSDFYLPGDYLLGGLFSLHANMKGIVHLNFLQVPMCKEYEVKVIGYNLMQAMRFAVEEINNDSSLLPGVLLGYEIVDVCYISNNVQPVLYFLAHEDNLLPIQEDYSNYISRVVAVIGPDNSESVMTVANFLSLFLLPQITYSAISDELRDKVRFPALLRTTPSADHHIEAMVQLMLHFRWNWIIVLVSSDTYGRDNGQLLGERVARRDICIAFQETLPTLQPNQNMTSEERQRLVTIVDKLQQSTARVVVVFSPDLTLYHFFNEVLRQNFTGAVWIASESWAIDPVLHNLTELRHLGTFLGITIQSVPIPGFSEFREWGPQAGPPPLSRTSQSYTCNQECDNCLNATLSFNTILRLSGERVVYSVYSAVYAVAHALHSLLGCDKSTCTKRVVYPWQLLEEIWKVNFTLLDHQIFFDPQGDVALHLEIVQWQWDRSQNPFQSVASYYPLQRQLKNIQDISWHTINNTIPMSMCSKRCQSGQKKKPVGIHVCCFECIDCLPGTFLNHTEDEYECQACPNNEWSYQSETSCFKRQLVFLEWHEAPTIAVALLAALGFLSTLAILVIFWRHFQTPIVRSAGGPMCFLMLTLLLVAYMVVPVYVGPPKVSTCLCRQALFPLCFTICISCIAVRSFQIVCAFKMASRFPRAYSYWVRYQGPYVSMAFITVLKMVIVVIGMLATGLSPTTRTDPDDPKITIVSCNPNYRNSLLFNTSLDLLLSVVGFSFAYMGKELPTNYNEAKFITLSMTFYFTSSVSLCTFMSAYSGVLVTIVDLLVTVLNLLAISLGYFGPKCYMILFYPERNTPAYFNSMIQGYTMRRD
Sequence (Q925D8 with tags, fused parts or gaps with the stated changes limits assumed): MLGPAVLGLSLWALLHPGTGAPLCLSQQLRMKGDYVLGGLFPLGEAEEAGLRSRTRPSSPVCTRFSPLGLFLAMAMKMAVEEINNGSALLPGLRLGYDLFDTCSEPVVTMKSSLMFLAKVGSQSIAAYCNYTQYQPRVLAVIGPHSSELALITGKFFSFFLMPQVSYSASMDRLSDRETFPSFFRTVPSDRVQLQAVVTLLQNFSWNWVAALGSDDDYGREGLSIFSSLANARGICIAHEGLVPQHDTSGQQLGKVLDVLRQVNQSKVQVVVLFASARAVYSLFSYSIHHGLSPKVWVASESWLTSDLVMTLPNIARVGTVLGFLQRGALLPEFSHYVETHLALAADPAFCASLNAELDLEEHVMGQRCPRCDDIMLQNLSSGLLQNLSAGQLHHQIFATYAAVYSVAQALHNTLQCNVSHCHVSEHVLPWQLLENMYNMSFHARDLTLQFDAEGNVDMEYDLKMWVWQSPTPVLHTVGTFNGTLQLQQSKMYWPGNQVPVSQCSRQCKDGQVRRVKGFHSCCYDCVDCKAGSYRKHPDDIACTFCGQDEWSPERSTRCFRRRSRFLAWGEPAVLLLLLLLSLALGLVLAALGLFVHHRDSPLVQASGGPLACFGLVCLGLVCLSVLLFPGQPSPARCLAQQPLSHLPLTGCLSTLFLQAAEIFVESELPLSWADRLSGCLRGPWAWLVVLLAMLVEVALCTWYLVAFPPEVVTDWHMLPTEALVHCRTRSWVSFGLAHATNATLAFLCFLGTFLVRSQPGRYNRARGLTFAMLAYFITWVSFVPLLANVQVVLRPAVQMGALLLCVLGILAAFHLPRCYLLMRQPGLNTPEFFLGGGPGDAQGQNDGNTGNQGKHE
Details: Table 6; genes hT2/T1R3mA (hT1R2, T1R3mA); HEK293E cells
Residues, ends and D or L forms follow the SMILES beside them.
Entries and their measured S/N follow.
measured-property: S/N

{"molecule": "COC(=O)[C@H](Cc1ccccc1)NC(=O)[C@@H](N)CC(=O)O [Aspartame, aspartame] (HELM PEPTIDE1{D.F.[CO[*:1]]}$$$$V2.0)", "measured-property": "S/N", "result": 3.5}
{"molecule": "CC1=CC(=O)NS(=O)(=O)O1 [Acesulfame K, acesulfame potassium]", "measured-property": "S/N", "result": 3.7}
{"molecule": "O=C1NS(=O)(=O)c2ccccc21.[Na] [Saccharin Na, sodium saccharin]", "measured-property": "S/N", "result": 4.2}
{"molecule": "COc1ccc(CCC(=O)c2c(O)cc(O[C@@H]3O[C@H](CO)[C@@H](O)[C@H](O)[C@H]3O[C@@H]3O[C@@H](C)[C@H](O)[C@@H](O)[C@H]3O)cc2O)cc1O [NHDC, neohesperidin dihydrochalcone]", "measured-property": "S/N", "result": 3.8}
{"molecule": "COC(=O)[C@H](Cc1ccccc1)NC(=O)[C@H](CC(=O)O)NCCC(C)(C)C [Neotame, neotame]", "measured-property": "S/N", "result": 6.5}

---

Target: h-mT1R2-EX5/T1R3mosaicA (UniProt Q8TE23+Q925D8, A12W/A31M/A537S/A558R/A564V/A568V/A570T/A588V/A645S/A649T/A658V/A698V/A702T/A782V/A793V/A807V/C582S/C678S/E16H/E530V/E534N/E542M/E548N/E725V/F14L/F29L/F525Y/F541I/F612A/F622V/F665L/F695L/G696N/G701T/H528R/H728R/I36V/I490V/I510L/I518V/I595M/I60P/I617V/I643V/I645L/I692L/I695G/I706V/I740A/I803L/K30R/K504M/K555R/K565R/K626T/K714N/K818R/K827G/L17P/L521P/L560F/L571I/L578I/L610P/L631F/L636F/L639V/L684P/L688V/L702I/L734M/L735F/L800F/L823M/L825Q/M19T/M492I/M616G/M644L/M682V/M690V/M744T/M748V/N52R/N540G/N541S/N547G/N58S/N63T/N675D/N721H/P545F/P561R/P564S/P61V/P638T/P824S/Q32K/Q536L/Q53S/Q546K/Q550E/Q555R/Q56R/Q611L/Q676H/Q757R/Q795R/Q831P/R498S/R632Q/R667S/S22P/S45E/S501P/S547N/S550A/S576L/S595F/S610P/S628F/S635P/S637R/S663R/S670G/S679G/S681F/S703N/S717H/S727G/S784D/S804G/T46A/T50G/T529S/T542A/T549I/T609V/T629S/T642S/T663I/T694M/T705I/T706G/T716I/T813A/V508I/V512P/V557A/V573A/V584A/V585L/V613L/V617M/V673M/V687A/V691A/V694A/V718L/V718M/V723A/V729T/V738A/V741L/V774I/V791M/V805L/V812A/V821L/W599R/W676R/W824R/Y533F/Y615F/Y671F/Y680C/Y769S/Y783H/Y794L)
Sequence (Q8TE23 with tags, fused parts or gaps with the stated changes limits assumed): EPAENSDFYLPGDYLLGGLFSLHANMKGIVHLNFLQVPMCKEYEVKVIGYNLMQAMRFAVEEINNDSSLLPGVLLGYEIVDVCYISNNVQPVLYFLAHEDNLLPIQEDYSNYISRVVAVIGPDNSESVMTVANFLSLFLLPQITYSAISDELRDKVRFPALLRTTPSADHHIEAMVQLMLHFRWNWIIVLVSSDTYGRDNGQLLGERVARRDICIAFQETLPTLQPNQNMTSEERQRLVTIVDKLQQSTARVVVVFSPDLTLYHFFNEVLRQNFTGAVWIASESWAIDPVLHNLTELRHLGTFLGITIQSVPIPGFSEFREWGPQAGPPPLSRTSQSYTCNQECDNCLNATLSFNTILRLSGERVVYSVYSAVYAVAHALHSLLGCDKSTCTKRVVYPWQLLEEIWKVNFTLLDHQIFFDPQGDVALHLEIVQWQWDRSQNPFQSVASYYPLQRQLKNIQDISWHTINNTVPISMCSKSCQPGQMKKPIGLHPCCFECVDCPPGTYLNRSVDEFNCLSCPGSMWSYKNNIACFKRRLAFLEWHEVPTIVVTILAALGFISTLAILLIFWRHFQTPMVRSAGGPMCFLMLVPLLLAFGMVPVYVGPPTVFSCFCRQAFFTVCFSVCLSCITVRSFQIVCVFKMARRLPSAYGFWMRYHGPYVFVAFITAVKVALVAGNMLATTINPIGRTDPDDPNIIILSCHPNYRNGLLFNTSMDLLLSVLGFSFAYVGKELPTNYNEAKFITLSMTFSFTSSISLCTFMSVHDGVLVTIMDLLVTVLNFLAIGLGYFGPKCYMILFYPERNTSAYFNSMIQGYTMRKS
Conditions: Table 4; genes h-mTEX5/T3mA (h-mT1R2-EX5, T1R3mA); HEK293E cells
Residues, ends and D or L forms follow the SMILES beside them.
Entries and their measured S/N follow.
measured-property: S/N

{"compound": "CC1=CC(=O)NS(=O)(=O)O1 [Acesulfame K, acesulfame potassium]", "measured-property": "S/N", "number": 5.1}
{"compound": "COC(=O)[C@H](Cc1ccccc1)NC(=O)[C@@H](N)CC(=O)O [Aspartame, aspartame] (HELM PEPTIDE1{D.F.[CO[*:1]]}$$$$V2.0)", "measured-property": "S/N", "number": 7.6}
{"compound": "OC[C@H]1O[C@@](CO)(O[C@H]2O[C@H](CO)[C@@H](O)[C@H](O)[C@H]2O)[C@@H](O)[C@@H]1O [Sucrose, sucrose]", "measured-property": "S/N", "number": 3.5}
{"compound": "C[C@H](NC(=Nc1ccc(C#N)cc1)NCC(=O)O)c1ccccc1 [SC-45647]", "measured-property": "S/N", "number": 7.3}
{"compound": "COC(=O)[C@H](Cc1ccccc1)NC(=O)[C@H](CC(=O)O)NCCC(C)(C)C [Neotame, neotame]", "measured-property": "S/N", "number": 7.5}
{"compound": "OC[C@H]1O[C@H](O[C@]2(CCl)O[C@H](CCl)[C@@H](O)[C@@H]2O)[C@H](O)[C@@H](O)[C@H]1Cl [Sucralose, sucralose]", "measured-property": "S/N", "number": 7.4}
{"compound": "COC(=O)[C@H](Cc1ccccc1)NC(=O)[C@H](CC(=O)O)NCCCc1ccc(OC)c(O)c1 [Advantame, advantame]", "measured-property": "S/N", "number": 9.4}
{"compound": "O=C1NS(=O)(=O)c2ccccc21.[Na] [Saccharin Na, sodium saccharin]", "measured-property": "S/N", "number": 4.6}
